meta.source: patent US20230382904A1

Quick record of IC50 values for DLK (Homo sapiens (Human), UniProt Q12852).
Measured Quantity: IC50 (nM)

Compound: CCN(CC)CCNc1nc2ccc(-c3csc(C(=O)NCc4cccc(OC)c4)c3)cn2n1
Comparison Sign: >
Reported Measurement: 30000

Compound: C[C@@H](CO)NC(=O)c1cc(-c2csc(C(=O)N(C)[C@@H](C)c3ccc(F)cc3)c2)cn2nc(N)nc12
Comparison Sign: =
Reported Measurement: 82

Compound: COC[C@H](NC(=O)c1cc(-c2cc(C(=O)NC(C)C)c3nc(N)nn3c2)cs1)c1ccc(F)cc1
Comparison Sign: =
Reported Measurement: 14

Compound: Cc1ccc([C@H](C)NC(=O)c2cc(-c3cc(C(=O)N[C@H]4CCOC4)c4nc(N)nn4c3)cs2)cc1
Comparison Sign: =
Reported Measurement: 11

Compound: CC(NC(=O)c1cc(-c2csc(C(=O)N[C@@H](C)c3ccccc3)c2)cn2nc(N)nc12)C(F)(F)F (mixture of isomers) [Compound 43]
Comparison Sign: =
Reported Measurement: 22

Compound: CN1C2CCC1CC(NC(=O)c1cc(-c3ccc4nc(N)nn4c3)cs1)C2 (stereo not shown)
Comparison Sign: =
Reported Measurement: 2800

Compound: Nc1nc2c(C(=O)NC3COC3)cc(-c3csc(C(=O)NCc4ccc(F)cc4)c3)cn2n1
Comparison Sign: =
Reported Measurement: 320

Compound: Nc1nc2ccc(-c3csc(C(=O)NC4(c5ccc(F)cc5)COC4)c3)cn2n1
Comparison Sign: =
Reported Measurement: 530

Compound: Nc1nc2ccc(-c3csc(C(=O)N[C@H](c4ccccc4)C(F)(F)F)c3)cn2n1
Comparison Sign: =
Reported Measurement: 255

Compound: CC(NC(=O)c1cc(-c2ccc3nc(N)nn3c2)cs1)c1ccc(C(C)(C)C)cc1 (stereo not shown)
Comparison Sign: =
Reported Measurement: 30000

====

Catalogue of pIC50 values
Molecular target: LZK (Homo sapiens (Human))
Sequence (O43283 168-409): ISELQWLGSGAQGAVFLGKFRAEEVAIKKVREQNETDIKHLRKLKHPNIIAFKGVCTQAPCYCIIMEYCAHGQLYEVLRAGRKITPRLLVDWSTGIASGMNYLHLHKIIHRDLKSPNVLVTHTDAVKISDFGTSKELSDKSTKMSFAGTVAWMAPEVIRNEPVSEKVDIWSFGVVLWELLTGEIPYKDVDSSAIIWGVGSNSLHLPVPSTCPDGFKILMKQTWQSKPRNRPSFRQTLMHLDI
Assay: LZK biochemical assay (TR-FRET, MKK7 phosphorylation)
pIC50: −log10 of the molar value.
Measured Quantity: pIC50

Compound: COCCOc1cccc(CNC(=O)c2cc(-c3ccc4nc(N)nn4c3)cs2)c1
Comparison Sign: =
Reported Measurement: 4.72
--
Compound: CC[C@H](C)NC(=O)c1cc(-c2csc(C(=O)NCc3ccccc3)c2)cn2nc(N)nc12
Comparison Sign: =
Reported Measurement: 7.32
--
Compound: Nc1nc2ccc(-c3csc(C(=O)Nc4ccccc4OC(F)F)c3)cn2n1
Comparison Sign: =
Reported Measurement: 4.70
--
Compound: CC(C)(C)NC(=O)c1cc(-c2csc(C(=O)NCc3ccccc3)c2)cn2nc(N)nc12
Comparison Sign: =
Reported Measurement: 6.89
--
Compound: Nc1nc2ccc(-c3csc(C(=O)NC(c4ccccc4)C4CC4)c3)cn2n1 (centres unmarked) [Compound 327]
Comparison Sign: =
Reported Measurement: 5.21
--
Compound: Cc1cccc2oc(CNC(=O)c3cc(-c4ccc5nc(N)nn5c4)cs3)nc12
Comparison Sign: =
Reported Measurement: 5.37
--
Compound: COc1cccc(CNC(=O)c2cc(-c3cc(C)c4nc(N)nn4c3)cs2)c1
Comparison Sign: =
Reported Measurement: 5.04
--
Compound: COc1cccc(C(C)(C)NC(=O)c2cc(-c3cc(C(=O)NC(C)C)c4nc(N)nn4c3)cs2)c1
Comparison Sign: =
Reported Measurement: 6.66
--
Compound: C[C@@H](CO)NC(=O)c1cc(-c2csc(C(N)=O)c2)cn2nc(N)nc12
Comparison Sign: =
Reported Measurement: 5.96
--
Compound: Nc1nc2ccc(-c3csc(C(=O)NC4CCCC4)c3)cn2n1
Comparison Sign: <
Reported Measurement: 4.52
--
Compound: C[C@H](NC(=O)c1cc(-c2cc(C(=O)NC3CC3)c3nc(N)nn3c2)cs1)c1ccccc1
Comparison Sign: =
Reported Measurement: 5.85
--
Compound: CC(O)c1ccccc1NC(=O)c1cc(-c2ccc3nc(N)nn3c2)cs1 (centres unmarked)
Comparison Sign: <
Reported Measurement: 4.52
--
Compound: COc1cccc(CNC(=O)c2cc(-c3cc(C(=O)N(C)C)c4nc(N)nn4c3)cs2)c1
Comparison Sign: <
Reported Measurement: 4.52
--
Compound: CN1CCCCC1CNC(=O)c1cc(-c2ccc3nc(N)nn3c2)cs1 (centres unmarked)
Comparison Sign: =
Reported Measurement: 4.55
